# ASSAY_SYSTEM: Cytochrome P450 2C9 (Homo sapiens, UniProt P11712)

CHEMICAL_STRING	IC50
CC(C)(O)Cn1cc(-c2nc(NC3CCN(S(=O)(=O)C4CC4)CC3)ncc2C(F)(F)F)cn1	> 25 µM

---

Target sequence: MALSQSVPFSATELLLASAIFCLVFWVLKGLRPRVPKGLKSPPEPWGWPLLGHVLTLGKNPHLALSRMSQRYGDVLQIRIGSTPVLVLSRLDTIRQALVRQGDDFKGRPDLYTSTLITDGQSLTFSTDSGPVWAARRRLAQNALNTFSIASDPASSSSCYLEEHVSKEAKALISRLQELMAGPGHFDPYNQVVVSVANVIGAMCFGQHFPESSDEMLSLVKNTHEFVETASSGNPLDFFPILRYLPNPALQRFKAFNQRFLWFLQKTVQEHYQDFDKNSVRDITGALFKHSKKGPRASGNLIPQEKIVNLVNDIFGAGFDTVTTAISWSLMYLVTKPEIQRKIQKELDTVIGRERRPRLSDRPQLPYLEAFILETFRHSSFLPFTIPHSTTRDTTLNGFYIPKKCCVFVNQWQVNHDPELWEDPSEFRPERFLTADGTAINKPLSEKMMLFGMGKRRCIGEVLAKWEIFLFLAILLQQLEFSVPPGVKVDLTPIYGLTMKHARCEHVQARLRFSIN

CHEMICAL_STRING	IC50
CC(C)(O)Cn1cc(-c2nc(NC3CCN(S(=O)(=O)C4CC4)CC3)ncc2C(F)(F)F)cn1	> 25 µM

---

# ASSAY_SYSTEM: Cyclin-dependent kinase 1/cyclin B1 (Homo sapiens)
# EXPERIMENT_NOTES: Inhibition of N-terminal GST-tagged full length human CDK1 (1 to 297 residues)/human Cyclin B1 (1 to 433 residues) expressed in baculovirus infected Sf21 cells incubated for 60 mins in presence of ATP by HTRF assay
Listed next: entries and their corresponding IC50.
MEASUREMENT_TYPE: IC50 (nM)

CHEMICAL_STRING	VALUE_MEASURED
CNCc1ccc(-n2cc(-c3nc(NC4CCN(S(C)(=O)=O)CC4)ncc3C(F)(F)F)cn2)c(Cl)c1	43
CS(=O)(=O)N1CCC(Nc2ncc(C(F)(F)F)c(-c3cnn(-c4ccccc4Cl)c3)n2)CC1	90
CS(=O)(=O)N1CCC(Nc2ncc(Cl)c(-c3cnn(C4CCOCC4)c3)n2)CC1	1020
CS(=O)(=O)N1CCC(Nc2ncc(C(F)(F)F)c(-c3cnn(CC(F)(F)F)c3)n2)CC1	205
CS(=O)(=O)N1CCC(Nc2ncc(C(F)(F)F)c(-c3cnn(C4CCOCC4)c3)n2)CC1	407
CN1CCC(n2cc(-c3nc(NC4CCN(S(C)(=O)=O)CC4)ncc3C(F)(F)F)cn2)CC1	174
CC(C)(O)Cn1cc(-c2nc(NC3CCN(S(C)(=O)=O)CC3)ncc2C(F)(F)F)cn1	63
CS(=O)(=O)N1CCC(Nc2ncc(C(F)(F)F)c(-c3cnn(C4CCCCC4)c3)n2)CC1	257

---

# ASSAY_SYSTEM: Cyclin-dependent kinase 2/cyclin E1 (Homo sapiens, UniProt P24941)
# EXPERIMENT_NOTES: Inhibition of N-terminal GST-tagged full-length human CDK2(1 to 298 residues) /FLAG-tagged human Cyclin E1 (1 to 410 residues) expressed in baculovirus-infected Sf21 cells incubated for 60 mins in presence of ATP by HTRF assay
pIC50: −log10 of the molar value.
pIC50 of 9 or higher: Y. Under 9: N.

COMPOUND	ASSAY_SYSTEM	ASSIGNED_LABEL
Cc1cnc(Nc2ccc(NS(C)(=O)=O)cc2)nc1-c1cnn(C(CC#N)C2CCCC2)c1 (racemic)	Cyclin-dependent kinase 2/cyclin E1 (Homo sapiens, UniProt P24941)	N
CNCc1ccc(-n2cc(-c3nc(NC4CCN(S(C)(=O)=O)CC4)ncc3C(F)(F)F)cn2)c(Cl)c1	Cyclin-dependent kinase 2/cyclin E1 (Homo sapiens, UniProt P24941)	Y
CS(=O)(=O)N1CCC(Nc2ncc(Cl)c(-c3cnn(C4CCOCC4)c3)n2)CC1	Cyclin-dependent kinase 2/cyclin E1 (Homo sapiens, UniProt P24941)	N
CS(=O)(=O)N1CCC(Nc2ncc(C(F)(F)F)c(-c3cnn(C4CCCCC4)c3)n2)CC1	Cyclin-dependent kinase 2/cyclin E1 (Homo sapiens, UniProt P24941)	N
CN1CCC(n2cc(-c3nc(NC4CCN(S(C)(=O)=O)CC4)ncc3C(F)(F)F)cn2)CC1	Cyclin-dependent kinase 2/cyclin E1 (Homo sapiens, UniProt P24941)	N
CS(=O)(=O)N1CCC(Nc2ncc(C(F)(F)F)c(-c3cnn(C4CCOCC4)c3)n2)CC1	Cyclin-dependent kinase 2/cyclin E1 (Homo sapiens, UniProt P24941)	N
CC(C)(O)Cn1cc(-c2nc(NC3CCN(S(C)(=O)=O)CC3)ncc2C(F)(F)F)cn1	Cyclin-dependent kinase 2/cyclin E1 (Homo sapiens, UniProt P24941)	Y

---

# ASSAY_SYSTEM: CDK7/Cyclin H/MNAT1 (Homo sapiens)
# EXPERIMENT_NOTES: Inhibition of C-terminal 6-His tagged recombinant full-length human CDK7/recombinant full-length human Cyclin H/N-terminal GST-tagged recombinant full-length human MAT1 expressed in baculovirus infected Sf21 insect cells incubated for 60 mins in presence of ATP by HTRF assay
MEASUREMENT_TYPE: IC50 (nM)

CHEMICAL_STRING	ASSAY_SYSTEM	MEASUREMENT_TYPE	U	VALUE_MEASURED
CNCc1ccc(-n2cc(-c3nc(NC4CCN(S(C)(=O)=O)CC4)ncc3C(F)(F)F)cn2)c(Cl)c1	CDK7/Cyclin H/MNAT1 (Homo sapiens)	IC50	nM	33

---

# EXPERIMENT_NOTES: Volume of distribution at steady state in cynomolgus monkey at 0.3 mg/kg, iv administered as cassette dose and measured upto 24 hrs by LC-MS/MS analysis
# Assay type: ADME, organism-based, Macaca fascicularis
# TEST_CONDITIONS: in vivo, read-out: Vdss

CHEMICAL_STRING	U	Vd
CC(C)(O)Cn1cc(-c2nc(NC3CCN(S(=O)(=O)C4CC4)CC3)ncc2C(F)(F)F)cn1	L/kg	0.4

---

# EXPERIMENT_NOTES: Solubility of compound in SGF by HPLC analysis

CHEMICAL_STRING	BOUND_OPERATOR	solubility (µg/mL)
Cn1cnc(S(=O)(=O)N2CCC(Nc3ncc(C(F)(F)F)c(-c4cnn(CC(F)(F)F)c4)n3)CC2)c1	=	322
CS(=O)(=O)N1CCC(Nc2ncc(C(F)(F)F)c(-c3cnn(CC(F)(F)F)c3)n2)CC1	=	3
CN1CCC(n2cc(-c3nc(NC4CCN(S(C)(=O)=O)CC4)ncc3C(F)(F)F)cn2)CC1	>	400
Cn1cnc(S(=O)(=O)N2CCC(Nc3ncc(C#N)c(-c4cnn(CC(F)(F)F)c4)n3)CC2)c1	=	5
CNCc1ccc(-n2cc(-c3nc(NC4CCN(S(C)(=O)=O)CC4)ncc3C(F)(F)F)cn2)c(Cl)c1	=	94
CC(C)(O)Cn1cc(-c2nc(NC3CCN(S(C)(=O)=O)CC3)ncc2C(F)(F)F)cn1	=	842
Cn1cc(S(=O)(=O)N2CCC(Nc3ncc(C(F)(F)F)c(-c4cnn(CC(F)(F)F)c4)n3)CC2)cn1	<	1
CC(C)(O)Cn1cc(-c2nc(NC3CCN(S(=O)(=O)C4CC4)CC3)ncc2C#N)cn1	=	41
CS(=O)(=O)N1CCC(Nc2ncc(C(F)(F)F)c(-c3cnn(-c4ccccc4F)c3)n2)CC1	=	46
N#Cc1cnc(NC2CCN(S(=O)(=O)c3ccccn3)CC2)nc1-c1cnn(CC(F)(F)F)c1	<	1
CC(C)(O)Cn1cc(-c2nc(NC3CCN(S(=O)(=O)C4CC4)CC3)ncc2C(F)(F)F)cn1	>	400
CS(=O)(=O)N1CCC(Nc2ncc(C(F)(F)F)c(-c3cnn(C4CCCCC4)c3)n2)CC1	=	11

---

# EXPERIMENT_NOTES: Half-life in cynomolgus monkey at 0.5 mg/kg, iv administered as cassette dose and measured upto 24 hrs by LC-MS/MS analysis
# Assay type: ADME, organism-based, Macaca fascicularis
# TEST_CONDITIONS: in vivo

CHEMICAL_STRING	half-life, h
Cn1cnc(S(=O)(=O)N2CCC(Nc3ncc(C(F)(F)F)c(-c4cnn(CC(F)(F)F)c4)n3)CC2)c1	3.2
CNCc1ccc(-n2cc(-c3nc(NC4CCN(S(C)(=O)=O)CC4)ncc3C#N)cn2)c(Cl)c1	6

---

# EXPERIMENT_NOTES: Intrinsic clearance in human liver microsomes at 1 uM measured upto 30 mins by LC/MS analysis
# Assay type: ADME, Microsome
# TEST_CONDITIONS: read-out: CLH (converted)
MEASUREMENT_TYPE: CLint scaled at 1 µM (mL/min/kg)

CHEMICAL_STRING	BOUND_OPERATOR	VALUE_MEASURED
CS(=O)(=O)N1CCC(Nc2ncc(C(F)(F)F)c(-c3cnn(C4CCCCC4)c3)n2)CC1	=	18.3
CN1CCC(n2cc(-c3nc(NC4CCN(S(C)(=O)=O)CC4)ncc3C(F)(F)F)cn2)CC1	=	11.7
CS(=O)(=O)N1CCC(Nc2ncc(C(F)(F)F)c(-c3cnn(-c4ccccc4F)c3)n2)CC1	<	8.33
CS(=O)(=O)N1CCC(Nc2ncc(C(F)(F)F)c(-c3cnn(-c4ccccc4Cl)c3)n2)CC1	=	16.7
Cn1cc(S(=O)(=O)N2CCC(Nc3ncc(C(F)(F)F)c(-c4cnn(CC(F)(F)F)c4)n3)CC2)cn1	=	8.33
CC(C)(O)Cn1cc(-c2nc(NC3CCN(S(=O)(=O)C4CC4)CC3)ncc2C#N)cn1	<	8.33
N#Cc1cnc(NC2CCN(S(=O)(=O)c3ccccn3)CC2)nc1-c1cnn(CC(F)(F)F)c1	=	13.3
Cn1cnc(S(=O)(=O)N2CCC(Nc3ncc(C#N)c(-c4cnn(CC(F)(F)F)c4)n3)CC2)c1	<	8.33
CNCc1ccc(-n2cc(-c3nc(NC4CCN(S(C)(=O)=O)CC4)ncc3C#N)cn2)c(Cl)c1	=	10
